Values from paper PMC3816707

# Test system: 3T6 fibroblast cell line
# protocol_text: In vitro cytotoxicity, MTT-based cell viability assay
# Set-up: species or system murine
# stated_conditions: 3T6 cell line
readout_kind: Cytotoxicity

- smiles_data: "N=C(N)c1ccc(NCCNc2ccccc2)cc1"
  result: "no cytotoxicity"
- smiles_data: "N=C(N)c1ccc(NCCNc2ccc(C(=N)N)cc2)cc1"
  result: "no cytotoxicity"

----------
# Test system: Pneumocystis carinii
# protocol_text: In vitro anti-Pneumocystis activity, P. carinii axenic short culture (4 days)
# Type: cell-based
# stated_conditions: Pneumocystis carinii, 96 h; Hill equation, 4 days of culture, 150 to 1.35 10^-5 µM; read-out: EC50 against P. carinii
# Experimental: Drug stock solutions in DMSO (10 mg/mL) were diluted in Dulbecco's Modified Eagle's Medium (DMEM, BioWhittaker) supplemented with 10% heat-inactivated foetal calf serum (FCS, Gibco-BRL) to produce the required drug concentrations. P. carinii axenic short cultures were performed as follows. […] Then, P. carinii organisms were collected and quantified after RAL-555 panoptic staining. […]
readout_kind: EC50
Write the numeric value and append its unit.

(Q) Which EC50 is reported for this compound? N=C(N)c1ccc(NCCNc2ccccc2)cc1
(A) 400 nM

(Q) Which EC50 is reported for this compound? N=C(N)c1ccc(OCCCCCOc2ccc(C(=N)N)cc2)cc1 [Compound 1, pentamidine, reference compound]
(A) 80 nM

(Q) Which EC50 is reported for this compound? N=C(N)c1ccc(NCCNc2ccc(C(=N)N)cc2)cc1
(A) 600 nM
